Reported Ki by item:
Study Target: human Y2 receptor (Homo sapiens, UniProt P49146)
Construct: expressed in transfected cells; host or cells: COS-7 (transient)
Sequence (P49146 whole entry): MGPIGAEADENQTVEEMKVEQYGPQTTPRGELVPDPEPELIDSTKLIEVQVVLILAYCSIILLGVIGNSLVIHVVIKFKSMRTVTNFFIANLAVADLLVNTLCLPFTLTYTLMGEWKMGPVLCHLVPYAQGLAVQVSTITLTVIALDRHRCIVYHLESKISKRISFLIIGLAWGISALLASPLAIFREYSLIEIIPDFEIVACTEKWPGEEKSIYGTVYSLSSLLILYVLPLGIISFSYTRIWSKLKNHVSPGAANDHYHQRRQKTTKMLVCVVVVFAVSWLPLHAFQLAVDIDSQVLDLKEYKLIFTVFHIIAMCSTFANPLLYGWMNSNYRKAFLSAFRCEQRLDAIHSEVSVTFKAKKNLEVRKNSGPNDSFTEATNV
Measurement Protocol: ^125I-PYY binding to membranes, cloned human Y2 receptor
Condition Description: read-out: Binding Affinity Ki vs. ^125I-PYY, Human Receptor Y2; Table 14; stably transfected 293 cells (compound 1 also COS-7)
Observed Property: Ki (µM)

>  <Compound>
Cl.O=S(=O)(NC[C@H]1CC[C@H](CNCc2cccc3ccccc23)CC1)c1ccccc1C(F)(F)F

>  <Result Value>
0.617

$$$$
>  <Compound>
O=S(=O)(NC[C@H]1CC[C@H](CNC(CO)Cc2ccc(Cl)cc2)CC1)c1cccc2ccccc12 (stereo partly shown)

>  <Result Value>
0.851

$$$$
>  <Compound>
Cl.Cl.O=[N+]([O-])c1ccccc1S(=O)(=O)NC[C@H]1CC[C@H](CNCc2ccc3ccccc3n2)CC1

>  <Result Value>
58.2

$$$$
>  <Compound>
Cl.O=S(=O)(NC[C@H]1CC[C@H](CNCC2CCc3ccccc3C2)CC1)c1cccc2ccccc12 (mixture of isomers)

>  <Result Value>
0.955

$$$$
